System: ENR+CD organoids (ISC to Paneth cell differentiation)
Assay: Primary screen: CCh-stimulated lysozyme secretion LYZ.S, 2.5-D 384-well ENR+CD organoid differentiation
Assay type: cell-based, mouse
Settings: primary screen, dose 10.00 uM
Structures can show the parent of a compound that is named as a salt.
Mark each entry 1 if its Dose.FC.LYZ.S (log2 fold change) sits below -0.06, and 0 for all others.

>  <molecule>
COC(=O)CCSCc1ccc(-c2onc(C)c2NC(=O)OC(C)c2ccccc2Cl)cc1 (centres unmarked)

>  <label>
0

$$$$

Does CCn1c(=O)c2c(nc(/C=C/c3ccc(OC)c(OC)c3)n2C)n(CC)c1=O have Dose.FC.LYZ.S (log2 fold change) strictly under -0.06?
0

Does Cl.Cl.O=S(=O)(NCCNC/C=C/c1ccc(Br)cc1)c1cccc2cnccc12 [H 89 2HCl] have Dose.FC.LYZ.S (log2 fold change) strictly under -0.06?
0

Confirm or reject: Dose.FC.LYZ.S (log2 fold change) of Cn1cc(/C=C2\C(=O)Nc3cccnc32)c2ccccc21 lies strictly below -0.06
0

A record lists Oc1ccc2ccccc2c1SSc1c(O)ccc2ccccc12 . Is its Dose.FC.LYZ.S (log2 fold change) below -0.06?
0

Bench note: check whether NC(=O)c1ccc(I)c([N+](=O)[O-])c1 shows Dose.FC.LYZ.S (log2 fold change) below -0.06
0

is_below(Dose.FC.LYZ.S (log2 fold change), -0.06) for Cc1ccc(NC(=O)c2ccc(CN3CCN(C)CC3)cc2)cc1Nc1nccc(-c2cccnc2)n1 [Imatinib (STI571)] ?
0

Here's an entry: Cc1cc(Nc2cc(CN3CCOCC3)c3nc(C)c(Cc4ccc(Cl)cc4F)n3n2)n[nH]1 . Is its Dose.FC.LYZ.S (log2 fold change) below -0.06?
1

Strictly below -0.06 in Dose.FC.LYZ.S (log2 fold change)? CC1=C(C(=O)Nc2cc3cn[nH]c3cc2F)C(c2ccc(C(F)(F)F)cc2)CC(=O)N1 (centres unmarked) [GSK429286A]
0

Does the reported Dose.FC.LYZ.S (log2 fold change) of CCOC(=O)[C@H](CCc1ccccc1)N[C@@H](C)C(=O)N1C(=O)N(C)C[C@H]1C(=O)O [Imidapril HCl] stay below -0.06?
1

Consider the molecule CC12CC3CC(C)(C1)CC(N)(C3)C2 [Memantine HCl] . Is its Dose.FC.LYZ.S (log2 fold change) strictly less than -0.06?
0

Report whether reported Dose.FC.LYZ.S (log2 fold change) is lower than -0.06 (strictly) for COc1ccc(COc2ccc(Cc3cnc(N)nc3N)cc2OC)cc1
0

----------
Tested on: ENR+CD organoids
Test: Primary screen: ATP (CellTiter-Glo 3D, CTG) cell number/viability, 2.5-D 384-well ENR+CD organoids;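 further: compounds given at plating and again on day 3 over a 6-day differentiation from ENR+CV stem-cell-enriched precursors, ATP measured on day 6, plate median as control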
Settings: primary screen; dose 10.00 uM; FC vs plate median
Task for the reader: assign each of the following compounds its reported Dose.FC.CTG.
Answers are plain numbers, in log2 fold change.

Hi! Can you tell me Dose.FC.CTG for each of these compounds?
1. NCC(=O)Nc1ccc(-n2nc(C(F)(F)F)cc2-c2ccc3c(ccc4ccccc43)c2)cc1 [OSU-03012 (AR-12)]
2. CN(c1ncccc1CNc1nc(Nc2ccc3c(c2)CC(=O)N3)ncc1C(F)(F)F)S(C)(=O)=O [PF-562271]
3. Cc1[nH]c2ccccc2c1CCNCc1ccc(/C=C/C(=O)NO)cc1 [Panobinostat (LBH589)]
4. CCc1cncnc1N1CCN(Cc2nc3ccc(C(F)(F)F)cc3[nH]2)CC1 [PF-4708671]

[0.078, "−0.949", "−1.003", "−0.321"]

// CCCC(=O)Nc1cccc(NC(=O)c2ccccc2Br)c1 [ML161] : Dose.FC.CTG value = −0.035
